test system: Acinetobacter baumanii/haemolyticus: Multidrug-resistant clinical isolate (AB-3167); experiment: MIC determination (CLSI), AB-3167; assay type: cell-based; details: Acinetobacter baumanii/haemolyticus multidrug-resistant clinical isolate AB-3167
READOUT_KIND: AB-3167 MIC (mg/L)
Write the answer as a number in mg/L, unit excluded.

Per the records, this molecule ( CC(CCc1ccc(-c2cccc(F)c2F)cc1)(C(=O)NO)S(C)(=O)=O (stereo not drawn) [Example 62] ) has AB-3167 MIC equal to 16

# AB-3167 MIC of Cc1ccc(C)c(-c2ccc(CCC(C)(C(=O)NO)S(C)(=O)=O)cc2)c1 (racemic) [Example 73] = 4

Sample CC(CCc1ccc(-c2ccccc2Cl)cc1)(C(=O)NO)S(C)(=O)=O (stereo not drawn) [Example 81] ; AB-3167 MIC observed: 32

Data point: CC(=O)c1ccc(-c2ccc(CCC(C)(C(=O)NO)S(C)(=O)=O)cc2)cc1O (stereo not drawn) [Example 181] ; AB-3167 MIC = 8

###

For each of the molecules below, state its MIC.
test system: Pseudomonas aeruginosa UI-18: Wild-type (PA-7); assay: MIC determination (CLSI), PA-7; assay type: cell-based; details: Pseudomonas aeruginosa; Table 3; read-out: PA-7 MIC
Numeric answer only, unit µg/mL assumed.

Data point: CC(CCc1ccc(OCc2ccc(C#N)cc2)cc1)(C(=O)NO)S(C)(=O)=O (centres unmarked) [Example 233] ; MIC = 4

MIC measured on CC(CCc1ccc(OCCOc2ccccc2)cc1)(C(=O)NO)S(C)(=O)=O (centres unmarked) [Example 248] = 32

Given item CC(CCc1ccc(OCc2cccc(OC(F)(F)F)c2)cc1)(C(=O)NO)S(C)(=O)=O (centres unmarked) [Example 274] , the value recorded as its MIC is 16

Lab note: Cc1ccc(C)c(COc2ccc(CCC(C)(C(=O)NO)S(C)(=O)=O)cc2)c1 (centres unmarked) [Example 254] gave MIC of 16

Looking up CC(CCc1ccc(OCc2nc(-c3cccc(F)c3F)no2)cc1)(C(=O)NO)S(C)(=O)=O (centres unmarked) [Example 253] , I see its MIC listed as 32

Per the record, CC(CCc1ccc(OCc2c(F)cc(F)cc2F)cc1)(C(=O)NO)S(C)(=O)=O (centres unmarked) [Example 293] has MIC of 4

For reference, reported MIC for CC(CCc1ccc(OCC2CCC2)cc1)(C(=O)NO)S(C)(=O)=O (centres unmarked) [Example 266] stands at 16

Memo: Cc1cc(C)cc(COc2ccc(CCC(C)(C(=O)NO)S(C)(=O)=O)cc2)c1 (centres unmarked) [Example 257] , reported MIC: 32

The recorded MIC for CCC(CC)COc1ccc(CCC(C)(C(=O)NO)S(C)(=O)=O)cc1 (centres unmarked) [Example 239] is 8

Data point: CC(CCc1ccc(OCc2nc3ccccc3s2)cc1)(C(=O)NO)S(C)(=O)=O (centres unmarked) [Example 277] ; MIC = 32

Sample CC(CCc1ccc(OC2CCCCC2)cc1)(C(=O)NO)S(C)(=O)=O (centres unmarked) [Example 238] ; MIC observed: 8

###

biological target: Pseudomonas aeruginosa LpxC enzyme (Pseudomonas aeruginosa (strain ATCC 15692 / DSM 22644 / CIP 104116 / JCM 14847 / LMG 12228 / 1C / PRS 101 / PAO1), UniProt P47205); experiment: IC50 Assay, LpxC Enzyme from P. aeruginosa (PA LpxC Enzyme IC50); format: biochemical; details: Table 3; read-out: PA LpxC enzyeme IC^50
Binning scheme for IC50: low range: < 1 nM; mid range: ≥ 1 nM and < 5 nM; high range: ≥ 5 nM

Query :: Which bin should I file CC(C)c1ccc(-c2noc(COc3ccc(CCC(C)(C(=O)NO)S(C)(=O)=O)cc3)n2)cc1 (centres unmarked) under?
Result :: mid range

Query :: // return the class label for CC(CCc1ccc(OCc2ccc(OC(F)(F)F)cc2)cc1)(C(=O)NO)S(C)(=O)=O (centres unmarked)
Result :: mid range

Query :: // bin(item) where item = CC(CCc1ccc(OCc2c(F)cc(F)cc2F)cc1)(C(=O)NO)S(C)(=O)=O (centres unmarked)
Result :: low range

Query :: Lab note: sort Cc1cccc(-c2nc(COc3ccc(CCC(C)(C(=O)NO)S(C)(=O)=O)cc3)c(C)o2)c1 (centres unmarked) into the matching IC50 band.
Result :: high range

Query :: Hi, small favor: classify CC(CCc1ccc(OCc2c(F)cccc2F)cc1)(C(=O)NO)S(C)(=O)=O (centres unmarked) by its IC50 when you get a moment.
Result :: low range

Query :: Returns: class label. Input: CC(CCc1ccc(OCc2nc(-c3ccccc3)no2)cc1)(C(=O)NO)S(C)(=O)=O (centres unmarked)
Result :: mid range

Query :: Hello team, could you let me know which band the following compound falls into: CC(CCc1ccc(OCc2cccc(F)c2F)cc1)(C(=O)NO)S(C)(=O)=O (centres unmarked)
Result :: low range

Query :: Quick check: band for CCc1ccccc1COc1ccc(CCC(C)(C(=O)NO)S(C)(=O)=O)cc1 (centres unmarked)
Result :: low range

Query :: Lab note: which band did CC(CCc1ccc(OCc2cc(F)ccc2C(F)(F)F)cc1)(C(=O)NO)S(C)(=O)=O (centres unmarked) land in?
Result :: high range

Query :: Into which category would you place Cc1oc(-c2ccccc2F)nc1COc1ccc(CCC(C)(C(=O)NO)S(C)(=O)=O)cc1 (centres unmarked) ?
Result :: high range

Query :: Class (by measured IC50) for CC(CCc1ccc(OCc2cccnc2)cc1)(C(=O)NO)S(C)(=O)=O (centres unmarked)
Result :: mid range

Query :: Using the reported IC50, which band applies to CC(CCc1ccc(OCc2ccc(Cl)cc2F)cc1)(C(=O)NO)S(C)(=O)=O (centres unmarked) ?
Result :: low range

Query :: Any idea which band CC(C)CCOc1ccc(CCC(C)(C(=O)NO)S(C)(=O)=O)cc1 (centres unmarked) is in?
Result :: mid range

Query :: Determine which band this compound sits in: C#CCOc1ccc(CCC(C)(C(=O)NO)S(C)(=O)=O)cc1 (centres unmarked)
Result :: high range

Query :: Input CC(CCc1ccc(OCc2cccc3cccnc23)cc1)(C(=O)NO)S(C)(=O)=O (centres unmarked) ; output its category
Result :: high range

Query :: Which bin, given its IC50, does Cc1cccc(COc2ccc(CCC(C)(C(=O)NO)S(C)(=O)=O)cc2)c1 (centres unmarked) occupy?
Result :: low range

###

System: Pseudomonas aeruginosa UI-18: Wild-type (PA-7)
Test: MIC determination (CLSI), PA-7
Type: cell-based
Settings: Pseudomonas aeruginosa; Table 3; read-out: PA-7 MIC
Method: The in vitro antibacterial activity of compounds described in the Examples was evaluated by minimum inhibitory concentration (MIC) testing according to Clinical and Laboratory Standards Institute (CLSI, formerly NCCLS) guidelines. See: Clinical and Laboratory Standards Institute. Methods for Dilution Antimicrobial Susceptibility Tests for Bacteria that Grow Aerobically; Approved Standard-Seventh Edition. CLSI document M7-A7 [ISBN 1-56238-587-9]. […]
Exercise: for every item that follows, state its recorded MIC.

The recorded MIC for CC(CCc1ccc(OCc2nc(C3CCC3)no2)cc1)(C(=O)NO)S(C)(=O)=O (centres unmarked) [Example 300] is 32 µg/mL

Entry CC(CCc1ccc(OCc2cccc(F)c2F)cc1)(C(=O)NO)S(C)(=O)=O (centres unmarked) [Example 247] , MIC reported as 2 µg/mL

Sure, the documented MIC for CC(CCc1ccc(OCc2ccc(F)cc2C(F)(F)F)cc1)(C(=O)NO)S(C)(=O)=O (centres unmarked) [Example 249] is 16 µg/mL

Record Cc1ccccc1COc1ccc(CCC(C)(C(=O)NO)S(C)(=O)=O)cc1 (centres unmarked) [Example 260] , field MIC: 8 µg/mL

MIC measured on CC(CCc1ccc(OCc2cccnc2)cc1)(C(=O)NO)S(C)(=O)=O (centres unmarked) [Example 303] = 16 µg/mL

###

test system: Klebsiella pneumoniae: Ciprofloxacin-resistant isolate, ESBL, clinical isolate (KP-3700); assay: MIC determination (CLSI), KP-3700; type: cell-based
Provide the recorded KP-3700 MIC for the entries that follow.
Give the number; µg/mL is assumed, so skip it.

KP-3700 MIC measured on CC(CCc1ccc(-c2ccc(OCCCO)cc2)cc1)(C(=O)NO)S(C)(=O)=O (centres unmarked) = 2

Quick note, KP-3700 MIC for CC(CCc1ccc(-c2ccc3c(c2)C(=O)NC3)cc1F)(C(=O)NO)S(C)(=O)=O (centres unmarked) landed at 16

KP-3700 MIC recorded for this molecule, CC(CCc1ccc(-c2ccc(C#N)cc2F)cc1)(C(=O)NO)S(C)(=O)=O (centres unmarked) , is 8

// recorded KP-3700 MIC for CC(CCc1ccc(-c2ccc(OCCO)c(F)c2F)cc1)(C(=O)NO)S(C)(=O)=O (centres unmarked) : 8

Value of measured KP-3700 MIC for the entry CC(CCc1ccc(COc2ccccc2)cc1)(C(=O)NO)S(C)(=O)=O (centres unmarked) : 16

Lab book: KP-3700 MIC of CC(CCc1ccc(-c2ccc3c(c2)C(=O)NC3)c(F)c1)(C(=O)NO)S(C)(=O)=O (centres unmarked) noted as 32

Consider Cc1cc(F)ccc1-c1ccc(CCC(C)(C(=O)NO)S(C)(=O)=O)cc1 (centres unmarked) . Its measured KP-3700 MIC is 16

Recorded KP-3700 MIC (molecule COc1ccc(-c2ccc(CC[C@](C)(C(=O)NO)S(C)(=O)=O)cc2)cn1 ): 16
